All figures here come from patent US11208400B2.

Target: human Npt2a (Homo sapiens, UniProt Q06495)
Construct: expressed in transfected cells
Sequence (Q06495 1-639): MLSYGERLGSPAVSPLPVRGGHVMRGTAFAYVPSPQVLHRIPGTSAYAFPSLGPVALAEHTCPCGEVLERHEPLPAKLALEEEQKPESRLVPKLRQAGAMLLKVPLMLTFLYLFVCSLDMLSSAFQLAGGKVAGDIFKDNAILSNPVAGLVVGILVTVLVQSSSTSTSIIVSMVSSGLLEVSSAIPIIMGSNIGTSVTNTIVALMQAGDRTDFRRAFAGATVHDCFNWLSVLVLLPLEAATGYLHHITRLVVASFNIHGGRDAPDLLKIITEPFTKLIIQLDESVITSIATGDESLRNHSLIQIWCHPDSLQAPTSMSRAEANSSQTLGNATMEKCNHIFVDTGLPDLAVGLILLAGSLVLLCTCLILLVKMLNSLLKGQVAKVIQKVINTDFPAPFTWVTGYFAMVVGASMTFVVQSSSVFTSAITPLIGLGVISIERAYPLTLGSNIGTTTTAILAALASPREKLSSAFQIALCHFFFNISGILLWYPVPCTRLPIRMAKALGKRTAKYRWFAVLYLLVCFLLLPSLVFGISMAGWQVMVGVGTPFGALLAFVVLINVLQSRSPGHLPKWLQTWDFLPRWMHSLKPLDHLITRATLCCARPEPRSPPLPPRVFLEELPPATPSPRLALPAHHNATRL
Assay: Npt2a activity cell based assay, membrane potential dye, CHO T-REx hNpt2a cells
Conditions: doxycycline-induced, depolarization by sodium phosphate influx, average or median values if tested more than once
Measured pIC50 values are reported for all entries that follow.
pIC50 here is simply -log10 of the concentration when that concentration is written in mol/L.

compound="CSc1cc(-c2nn(CC3CC3)c(Nc3cc(-n4nc(C)cc4C)ncn3)c2C)ccc1F [Example 430]" assaytarget="human Npt2a (Homo sapiens, UniProt Q06495)" measured=7.35
compound="CCc1c(Nc2cc(-n3ncc4c3CCN(C(=O)OC(C)(C)C)C4)ncn2)n[nH]c1-c1ccc(F)cc1 [Example 33]" assaytarget="human Npt2a (Homo sapiens, UniProt Q06495)" measured=6.00
compound="Cc1nn(-c2cc(Nc3nn(C)c(-c4ccc(F)cc4)c3C)ncn2)c(C(C)(C)O)c1Cl [Example 261]" assaytarget="human Npt2a (Homo sapiens, UniProt Q06495)" measured=7.70

Okay, next one:
Considering CCOC(=O)c1c(C)nn(-c2cc(Nc3nn(CC4CC4)c(-c4ccc(F)cc4)c3CC)ncn2)c1C [Example 145] , its pIC50 with human Npt2a (Homo sapiens, UniProt Q06495) was recorded as 6.77
